Let's look at some molecules and their measured half-life at 1 µM.
# Assay procedure: Metabolic stability in human liver microsomes
# Assay type: in vitro ADME
# Assay setup: both sexes, human, liver microsomes, human liver microsomes 0.25 mg/ml, compound 1 µM; read-out: T1/2 (half-life)

>  <Chemical smiles>
CCc1c(C(C)C)[nH]c2nc3nc(F)ccc3n2c1=O

>  <Unit>
min

>  <half-life at 1 µM>
48.8

$$$$
>  <Chemical smiles>
CCc1c(C(C)C)[nH]c2nc3cc(C)c(C)cc3n2c1=O

>  <Unit>
min

>  <half-life at 1 µM>
10.6

$$$$
>  <Chemical smiles>
CCc1c(C(C)C)[nH]c2nc3cc(F)c(F)cc3n2c1=O

>  <Unit>
min

>  <half-life at 1 µM>
92

$$$$
>  <Chemical smiles>
CCc1c(C(C)C)[nH]c2nc3cc(F)ccc3n2c1=O

>  <Unit>
min

>  <half-life at 1 µM>
14

$$$$

Data origin, for the record: paper PMC12010006
